# Assayed system: human insulin-like growth factor-I (IGF-I) (human, UniProt P05019 49-118)
# Run description: cell-based or functional assay
# EC50 (nM), n = 1, IGF-I pTYR, BxPC3 cells annotations
Endpoint: EC50 (nM), n = 1, IGF-I pTYR, BxPC3 cells

binder="mAb 7.158.2 (antibody, V domains shown, Kappa light chain (L5/JK3); also called 7.158.1; 7_158_1) VH: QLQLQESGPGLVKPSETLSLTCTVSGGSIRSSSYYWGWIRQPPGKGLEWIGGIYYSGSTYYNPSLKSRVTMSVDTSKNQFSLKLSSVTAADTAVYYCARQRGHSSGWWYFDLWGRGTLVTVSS VL: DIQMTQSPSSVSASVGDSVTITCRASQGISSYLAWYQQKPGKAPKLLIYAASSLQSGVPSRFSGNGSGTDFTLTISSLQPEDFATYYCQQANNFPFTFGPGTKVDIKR" result=4.5
binder="mAb 7.34.1 (antibody, V domains shown, Fully human XenoMouse hybridoma mAb, lambda light chain (V1-13/JL2); also called ATCC PTA-7423) VH: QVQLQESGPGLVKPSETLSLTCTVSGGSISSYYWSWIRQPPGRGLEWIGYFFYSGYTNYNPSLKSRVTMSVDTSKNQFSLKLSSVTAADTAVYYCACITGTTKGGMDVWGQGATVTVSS VL: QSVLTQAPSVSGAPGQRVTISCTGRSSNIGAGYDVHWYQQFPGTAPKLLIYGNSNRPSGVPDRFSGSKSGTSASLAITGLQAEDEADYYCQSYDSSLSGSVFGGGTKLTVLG" result=5.9
binder="mAb 7.234.2 (antibody, V domains shown, Kappa light chain (L5/JK3); also called 7.234.1; 7_234_1) VH: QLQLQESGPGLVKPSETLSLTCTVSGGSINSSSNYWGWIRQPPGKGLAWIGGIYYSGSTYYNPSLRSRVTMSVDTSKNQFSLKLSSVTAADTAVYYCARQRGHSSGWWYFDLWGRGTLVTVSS VL: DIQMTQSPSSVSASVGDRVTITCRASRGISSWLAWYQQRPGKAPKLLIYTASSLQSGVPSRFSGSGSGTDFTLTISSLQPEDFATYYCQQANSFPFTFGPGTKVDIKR" result=5.1
